# protocol_details: in vivo
# run_parameters: female, CB-17 SCID, mouse, liver, oral, 200 mg/kg, Concentration, individual animals 1-3, liver, 200 mg/kg QD, 1 h
property_measured: concentration at 1 h (µg/mL)
# number only, unit µg/mL dropped from output

Prompt line: Item CS(=O)(=O)CCNCc1ccc(-c2ccc3ncnc(Nc4ccc(OCc5cccc(F)c5)c(Cl)c4)c3c2)o1 [lapatinib] has what recorded concentration at 1 h?
Response line: 137

---

# protocol_details: in vivo
# run_parameters: female, CB-17 SCID, mouse, liver, oral, 100 mg/kg, Cmax, single dose
property_measured: Cmax (ng/mL)
# number only, unit ng/mL dropped from output

Prompt line: Item "CS(=O)(=O)CCNCc1ccc(-c2ccc3ncnc(Nc4ccc(OCc5cccc(F)c5)c(Cl)c4)c3c2)o1" has what recorded Cmax?
Response line: 46700

---

# protocol_details: in vivo
# run_parameters: female, CB-17 SCID, mouse, BT474 tumor, po, 100 mg/kg, MRTlast, single dose
property_measured: MRT last (h)
# number only, unit h dropped from output

Prompt line: Item "CS(=O)(=O)CCNCc1ccc(-c2ccc3ncnc(Nc4ccc(OCc5cccc(F)c5)c(Cl)c4)c3c2)o1" has what recorded MRT last?
Response line: 12.6

---

# protocol_details: in vivo
# run_parameters: female, CB-17 SCID, mouse, liver, oral, 200 mg/kg, Tmax, single dose
property_measured: Tmax (h)
# number only, unit h dropped from output

Prompt line: Item "CS(=O)(=O)CCNCc1ccc(-c2ccc3ncnc(Nc4ccc(OCc5cccc(F)c5)c(Cl)c4)c3c2)o1" has what recorded Tmax?
Response line: 12

---

# protocol_details: in vivo
# run_parameters: female, CB-17 SCID, mouse, blood, po, 100 mg/kg, MRTlast, 100 mg/kg BID, multiple doses
property_measured: MRT last (h)
# number only, unit h dropped from output

Prompt line: Item "CS(=O)(=O)CCNCc1ccc(-c2ccc3ncnc(Nc4ccc(OCc5cccc(F)c5)c(Cl)c4)c3c2)o1" has what recorded MRT last?
Response line: 6.9

---

# protocol_details: in vivo
# run_parameters: female, CB-17 SCID, mouse, kidney, oral, 100 mg/kg, Concentration, individual animals 1-3, kidney, 100 mg/kg BID, 1 h
property_measured: concentration at 1 h (µg/mL)
# number only, unit µg/mL dropped from output

Prompt line: Item "CS(=O)(=O)CCNCc1ccc(-c2ccc3ncnc(Nc4ccc(OCc5cccc(F)c5)c(Cl)c4)c3c2)o1" has what recorded concentration at 1 h?
Response line: 57.2

---

# protocol_details: in vivo
# run_parameters: female, CB-17 SCID, mouse, blood, po, 200 mg/kg, AUClast, 200 mg/kg QD, multiple doses
property_measured: AUC(0-t) (µg·h/mL)
# number only, unit µg·h/mL dropped from output

Prompt line: Item CS(=O)(=O)CCNCc1ccc(-c2ccc3ncnc(Nc4ccc(OCc5cccc(F)c5)c(Cl)c4)c3c2)o1 [lapatinib] has what recorded AUC(0-t)?
Response line: 152

---

# protocol_details: in vivo
# run_parameters: female, CB-17 SCID, mouse, blood, po, 200 mg/kg, Cmax, single dose
property_measured: Cmax (µg/mL)
# number only, unit µg/mL dropped from output

Prompt line: Item CS(=O)(=O)CCNCc1ccc(-c2ccc3ncnc(Nc4ccc(OCc5cccc(F)c5)c(Cl)c4)c3c2)o1 [lapatinib] has what recorded Cmax?
Response line: 8.22

---

# protocol_details: in vivo
# run_parameters: female, CB-17 SCID, mouse, blood, po, 100 mg/kg, Tmax, single dose
property_measured: Tmax (h)
# number only, unit h dropped from output

Prompt line: Item CS(=O)(=O)CCNCc1ccc(-c2ccc3ncnc(Nc4ccc(OCc5cccc(F)c5)c(Cl)c4)c3c2)o1 [lapatinib] has what recorded Tmax?
Response line: 1

---

# protocol_details: in vivo
# run_parameters: female, CB-17 SCID, mouse, liver, oral, 100 mg/kg, MRTlast, single dose
property_measured: MRT last (h)
# number only, unit h dropped from output

Prompt line: Item "CS(=O)(=O)CCNCc1ccc(-c2ccc3ncnc(Nc4ccc(OCc5cccc(F)c5)c(Cl)c4)c3c2)o1" has what recorded MRT last?
Response line: 7.5

---

# protocol_details: in vivo
# run_parameters: female, CB-17 SCID, mouse, blood, po, 200 mg/kg, Tmax, single dose
property_measured: Tmax (h)
# number only, unit h dropped from output

Prompt line: Item "CS(=O)(=O)CCNCc1ccc(-c2ccc3ncnc(Nc4ccc(OCc5cccc(F)c5)c(Cl)c4)c3c2)o1" has what recorded Tmax?
Response line: 12

---

# protocol_details: in vivo
# run_parameters: female, CB-17 SCID, mouse, kidney, po, 200 mg/kg, Tmax, 200 mg/kg QD, multiple doses
property_measured: Tmax (h)
# number only, unit h dropped from output

Prompt line: Item "CS(=O)(=O)CCNCc1ccc(-c2ccc3ncnc(Nc4ccc(OCc5cccc(F)c5)c(Cl)c4)c3c2)o1" has what recorded Tmax?
Response line: 10

---

# protocol_details: in vivo
# run_parameters: female, CB-17 SCID, mouse, whole blood, po, 100 mg/kg, AUC 0–12, blood, median (range), n = 3, after fifth dose of 100 mg/kg BID
property_measured: AUC(0-t) (µM·h)
# number only, unit µM·h dropped from output

Prompt line: Item "CS(=O)(=O)CCNCc1ccc(-c2ccc3ncnc(Nc4ccc(OCc5cccc(F)c5)c(Cl)c4)c3c2)o1" has what recorded AUC(0-t)?
Response line: 104

---

# protocol_details: in vivo
# run_parameters: female, CB-17 SCID, mouse, kidney, oral, 100 mg/kg, Concentration, individual animals 1-3, kidney, 100 mg/kg BID, 96 h
property_measured: concentration at 96 h
Note: state the figure and append the unit.

Prompt line: Item "CS(=O)(=O)CCNCc1ccc(-c2ccc3ncnc(Nc4ccc(OCc5cccc(F)c5)c(Cl)c4)c3c2)o1" has what recorded concentration at 96 h?
Response line: 47.9 ng/mL

---

# protocol_details: in vivo
# run_parameters: female, CB-17 SCID, mouse, liver, po, 200 mg/kg, Tmax, 200 mg/kg QD, multiple doses
property_measured: Tmax (h)
# number only, unit h dropped from output

Prompt line: Item "CS(=O)(=O)CCNCc1ccc(-c2ccc3ncnc(Nc4ccc(OCc5cccc(F)c5)c(Cl)c4)c3c2)o1" has what recorded Tmax?
Response line: 10

---

# protocol_details: in vivo
# run_parameters: female, CB-17 SCID, mouse, BT474 tumor, oral, 200 mg/kg, Concentration, individual animals 1-3, tumor, 200 mg/kg QD, 96 h
property_measured: concentration at 96 h (µg/mL)
# number only, unit µg/mL dropped from output

Prompt line: Item "CS(=O)(=O)CCNCc1ccc(-c2ccc3ncnc(Nc4ccc(OCc5cccc(F)c5)c(Cl)c4)c3c2)o1" has what recorded concentration at 96 h?
Response line: 0.915

---

# protocol_details: in vivo
# run_parameters: female, CB-17 SCID, mouse, liver, oral, 100 mg/kg, Tmax, single dose
property_measured: Tmax (h)
# number only, unit h dropped from output

Prompt line: Item "CS(=O)(=O)CCNCc1ccc(-c2ccc3ncnc(Nc4ccc(OCc5cccc(F)c5)c(Cl)c4)c3c2)o1" has what recorded Tmax?
Response line: 1

---

# protocol_details: in vivo
# run_parameters: female, CB-17 SCID, mouse, BT474 tumor, po, 200 mg/kg, MRTlast, 200 mg/kg QD, multiple doses
property_measured: MRT last (h)
# number only, unit h dropped from output

Prompt line: Item "CS(=O)(=O)CCNCc1ccc(-c2ccc3ncnc(Nc4ccc(OCc5cccc(F)c5)c(Cl)c4)c3c2)o1" has what recorded MRT last?
Response line: 18.7

---

# protocol_details: in vivo
# run_parameters: female, CB-17 SCID, mouse, liver, po, 200 mg/kg, AUClast, 200 mg/kg QD, multiple doses
property_measured: AUC(0-t)
Note: state the figure and append the unit.

Prompt line: Item "CS(=O)(=O)CCNCc1ccc(-c2ccc3ncnc(Nc4ccc(OCc5cccc(F)c5)c(Cl)c4)c3c2)o1" has what recorded AUC(0-t)?
Response line: 2110 µg·h/mL

---

# protocol_details: in vivo
# run_parameters: female, CB-17 SCID, mouse, liver, oral, 100 mg/kg, Concentration, individual animals 1-3, liver, 100 mg/kg BID, 4 h
property_measured: concentration at 4 h (µg/mL)
# number only, unit µg/mL dropped from output

Prompt line: Item "CS(=O)(=O)CCNCc1ccc(-c2ccc3ncnc(Nc4ccc(OCc5cccc(F)c5)c(Cl)c4)c3c2)o1" has what recorded concentration at 4 h?
Response line: 90.7

---

# protocol_details: in vivo
# run_parameters: female, CB-17 SCID, mouse, liver, oral, 200 mg/kg, Concentration, individual animals 1-3, liver, 200 mg/kg QD, 72 h
property_measured: concentration at 72 h (ng/mL)
# number only, unit ng/mL dropped from output

Prompt line: Item "CS(=O)(=O)CCNCc1ccc(-c2ccc3ncnc(Nc4ccc(OCc5cccc(F)c5)c(Cl)c4)c3c2)o1" has what recorded concentration at 72 h?
Response line: 101

---

# protocol_details: EGF10027 steady-state lapatinib concentrations in patient plasma and tumor
# Format: in vivo, human
# run_parameters: female, human, tumor, oral, 500 mg, patients, median (range), 500 mg BID (n = 5), steady state; read-out: Tumor Cmin
property_measured: concentration at 12 h (µM)
# number only, unit µM dropped from output

Prompt line: Item CS(=O)(=O)CCNCc1ccc(-c2ccc3ncnc(Nc4ccc(OCc5cccc(F)c5)c(Cl)c4)c3c2)o1 [lapatinib] has what recorded concentration at 12 h?
Response line: 13
